Test: solvent given as SMILES
Details: in CO
The following molecules are shown together with reported emission maximum values.

# Smiles repr, emission maximum, nm
records = [
    ("CC1(C)CC(NCc2ccc3ccc4cccc5ccc2c3c45)CC(C)(C)N1[O]", 375),
    ("CCOC(=O)C1=CNC=C(C(=O)OCC)C1c1ccccc1", 423),
    ("CC1=[N+]2C(=C(c3ccc(C#N)cc3)c3ccc(C)n3[B-]2(F)F)C=C1", 538),
    ("COC(=O)C[C@H](Cc1c[nH]c2ccccc12)NC(=O)[C@H](CC(=O)N[C@@H](CC1=CCc2ccccc21)C(=O)OC)NC(=O)OC(C)(C)C", 337),
    ("O=C1c2ccccc2C2=Cc3ccccc3B(O)N12", 430),
    ("COc1ccc2c(=O)c3c([nH]c2c1)-c1cc(Cl)ccc1NC3(C)C", 532),
    ("COc1ccc2c(c1)N(c1ccc(C)cc1)c1cc3c(cc1=N2)Oc1c(cc(C(C)(C)C)cc1C(C)(C)C)N=3", 635),
    ("CC1=CC(C)=[N+]2C1=C(c1ccc(-c3ccc(OS(=O)(=O)c4ccc([N+](=O)[O-])cc4[N+](=O)[O-])cc3)s1)c1c(C)cc(C)n1[B-]2(F)F", 523),
    ("c1ccc2cc(-c3cc(-c4nccs4)nc(-c4nccs4)c3)ccc2c1", 392),
    ("CCCN1/C(=C/C=C(/C=C/C2=[N+](CCC)c3ccccc3C2(C)C)c2cc[n+](C)cc2)C(C)(C)c2ccccc21", 658),
    ("CCCCc1cc(CCCC)c2ccc3c(CCCC)cc(CCCC)c4ccc1c2c43", 388),
    ("CCCCCCc1cc(B(c2c(C)cc(C)cc2C)c2c(C)cc(C)cc2C)c(-c2sc(CCCCCC)cc2P(=O)(c2ccccc2)c2ccccc2)s1", 605),
    ("CCC1=C(C)C2=Cc3c(I)c(I)cn3[B-](F)(F)[N+]2=C1C", 541.5),
]

====

Assay: solvent given as SMILES
Conditions: in C1COCCO1

# Smiles repr, Units text, emission maximum
data = [
    ("Cc1ccc(C2=C3C=CC(c4ccccc4)=[N+]3[B-](F)(F)n3c(Cl)ccc32)cc1", "nm", 554),
    ("O=Cc1cc(C=O)c2ccc3c(N4CCCCC4)cc(N4CCCCC4)c4ccc1c2c43", "nm", 585),
    ("CC1=N/C(=C\\c2ccncc2)C(=O)N1C", "nm", 439),
    ("CC1=C(Cc2ccccc2)C(C)=[N+]2C1=C(C)c1c(C)c(-c3csc(N4CCOCC4)n3)c(C)n1[B-]2(F)F", "nm", 602),
    ("Cc1ccc(C2=C3C=CC(C#Cc4ccccc4)=[N+]3[B-](F)(F)n3c(C#Cc4ccccc4)ccc32)cc1", "nm", 626),
]

====

Assay: solvent given as SMILES
Conditions: in ClCCl

# Compound, emission maximum / nm
measured = [
    ("C[SiH]1c2ccccc2-c2cc3c(cc21)-c1ccccc1[SiH]3C (stereo not drawn)", 389),
    ("Cc1cc2ccccc2c2[nH]c3ccccc3c12", 360),
    ("N#C/C(=C\\c1ccc(-c2ccncc2)cc1)c1ccc(-c2ccncc2)cc1", 460),
    ("C[P+]1(c2ccccc2)c2ccccc2-c2sc3ccccc3c21 (stereo not drawn)", 445),
    ("CC(C)[Si](C#Cc1c2cc3ccccc3cc2c(C#C[Si](C)(C)C)c2cc3ccccc3cc12)(C(C)C)C(C)C", 649),
    ("CC1(C)Nc2ccccc2-c2[nH]c3ccccc3c(=O)c21", 491),
    ("C(#Cc1cc(C#Cc2ccccc2)c(C#Cc2ccccc2)c(C#Cc2ccccc2)c1C#Cc1ccccc1)c1ccccc1", 424),
    ("COC(=O)c1cc(=O)n(C)c2cc(-c3ccc(N4CCN(C)CC4)cc3)sc12", 550),
    ("CCN(CC)c1ccc2c(c1)oc(=O)c1cnc3c(cnn3-c3ccccc3)c12", 441),
    ("COc1ccc2cc([C@H](C)C(=O)O)ccc2c1", 353.1),
    ("COc1c2ccccc2c(OC)c2c(C#CC(C)(C)C)c3cc4ccccc4cc3c(C#CC(C)(C)C)c12", 682),
    ("CCCCCCOc1ccc(-c2ccc(/C=C/c3cc(/C=C/c4ccc(-c5ccc(OCCCCCC)cc5)cc4)ncn3)cc2)cc1", 483),
    ("CCCCCCc1ccc(-n2c3[n+](c4c5ccccc5c5ccccc5c42)[B-](C)(C)c2ccccc2-3)cc1", 385),
]

====

Test: solvent given as SMILES
Details: in CC#N
Entries and their emission maximum values follow.
Readout kind: emission maximum

# Smiles repr, Endpoint value
rows = [
    ("CC(=O)[B-]1(C(C)=O)OC(c2ccccc2)=CC(c2ccc3ccccc3c2)=[O+]1", "510 nm"),
    ("CC(C)(C)c1ccc2c(c1)c1cc(C(C)(C)C)ccc1n2-c1ccc(-c2nc(-c3ccc(-n4c5ccc(C(C)(C)C)cc5c5cc(C(C)(C)C)ccc54)cc3)nc(-c3ccc(P(=O)(c4ccccc4)c4ccccc4)cc3)n2)cc1", "543.52 nm"),
    ("Nc1c(-c2nn([C@H]3C[C@H](O)[C@@H](CO)O3)c3ncnc(N)c23)ccc2ccccc12", "458 nm"),
    ("CN(C)c1ccc(-c2nc3c(c4c2-c2ccc(C#N)cc2CC4)-c2ccc(C#N)cc2CC3)cc1", "505 nm"),
    ("N#Cc1nn(-c2ccccc2)nc1N1CCCC1", "423 nm"),
    ("COc1ccc(-c2cc3c(s2)c(C(C)=O)cc(=O)n3Cc2ccccc2)cc1", "515 nm"),
    ("CN(C)c1ccc(/C=C/C(=O)O)cc1", "445 nm"),
    ("O=Cc1ccc(C2=C3C=c4c(oc5ccccc45)=[N+]3[B-](F)(F)n3c2cc2c4ccccc4oc23)cc1", "611 nm"),
    ("N#Cc1cccc(N)c1", "369.45 nm"),
    ("COc1cc(C2=CC3=C(c4c(C)cc(C)cc4C)c4cc(-c5cc(OC)c(OC)c(OC)c5)c(-c5cc(OC)c(OC)c(OC)c5)n4[B-](F)(F)[N+]3=C2c2cc(OC)c(OC)c(OC)c2)cc(OC)c1OC", "628 nm"),
    ("C[C@@]12SC(Cl)=CC1=c1nc(-c3ccc(Cl)cc3)[nH]c1=C1C=C(Cl)S[C@]12C", "449 nm"),
    ("CN(C)c1ccc(/C=C/c2nc(/C=C/c3ccc(N(C)C)cc3)c3ccccc3n2)cc1", "570 nm"),
    ("COc1ccc2c3c([nH]c2c1)C(C)=NCC3", "480 nm"),
    ("O=C1c2ccccc2-c2cnccc21", "516.76 nm"),
    ("COc1ccc(C#Cc2ccccc2C#Cc2ccc(OC)cc2)cc1", "380 nm"),
]

====

Assay: solvent given as SMILES
Conditions: in O

# Molecule, emission maximum
rows = [
    ("CC1(C)C(/C=C/C=C/C=C/C=C2/N(c3ccc(S(=O)(=O)[O-])cc3)c3ccc(S(=O)(=O)[O-])cc3C2(C)C)=[N+](c2ccc(S(=O)(=O)[O-])cc2)c2ccc(S(=O)(=O)[O-])cc21", "779 nm"),
    ("COc1cc(C(=O)O)cc(OC)c1O", "333 nm"),
    ("NS(=O)(=O)c1ccc(N2N=C(c3ccc(O)cc3)CC2c2ccc(Br)cc2)cc1 (stereo unspecified)", "449 nm"),
    ("O=C([O-])c1ccccc1-c1c2cc(Br)c(=O)c(Br)c-2oc2c(Br)c([O-])c(Br)cc12", "538 nm"),
    ("Cc1cc(O)c(C(C)C)cc1/N=C/c1ccc(C(F)(F)F)cc1", "449 nm"),
    ("CN(C)c1ccc2[c](c1)[Sn]([CH3])([CH3])[C]1=CC(=[N+](C)C)C=CC1=C2", "628 nm"),
    ("Cc1cccc2cc(-c3cc4cccc(C)c4oc3=O)oc12", "488 nm"),
    ("CCCCCCc1ccsc1-c1ccc(-c2sc(C(=O)O)cc2CCCCCC)s1", "490 nm"),
    ("COc1cc(OC)c2ccc(=O)oc2c1", "450 nm"),
    ("CCOC(=O)COc1ccc(C(c2c(C)[nH]c3ccccc23)c2c(C)[nH]c3ccccc23)cc1OC", "350 nm"),
    ("Cc1ccccc1C1=C2C=CC(=[N+](C)C)C=C2[Si](C)(C)c2cc(N(C)C)ccc21", "660 nm"),
    ("N#Cc1ccc(C[C@H](N)C(=O)O)cc1", "293.54 nm"),
    ("Oc1ccccc1-c1nc(-c2ccccc2)c2ccccn12", "481 nm"),
    ("CN(C)c1ccc(/C=C/C(=O)O)cc1", "453 nm"),
    ("CN1CCN(CCCN2c3ccccc3Sc3ccc(C(F)(F)F)cc32)CC1", "482 nm"),
    ("Cc1ccc(C(=O)/C=C2\\C(=O)Nc3ccccc32)cc1C", "409 nm"),
    ("COCCOCCOCCOc1cc(C=O)c(OCCOCCOCCOC)cc1C=O", "495 nm"),
    ("CN(C)c1cc(C#N)c(N(C)C)c(C#N)c1", "555.25 nm"),
    ("CC(C)c1cc(N(C)C)c(C#N)c2c1-c1cccc3cccc-2c13", "554 nm"),
    ("Cn1c2ccccc2c(=O)c2ccccc21", "430 nm"),
    ("CC[N+](CC)=c1ccc2c(-c3ccccc3C(=O)O)c3c(=O)oc4cc5c(cc4c3oc-2c1)CCCN5C", "658 nm"),
]

Origin of values: the Deep4Chem optical property database
